Target: Coagulation factor X (Oryctolagus cuniculus, UniProt O19045)
Assay: Inhibition of F10a in rabbit plasma assessed as doubling of activated partial thromboplastin time
pIC50: −log10 of the molar value.
Measured metric: pIC50

1. CN1CCN(Cc2csc(-c3ccc(N4C[C@H](CNC(=O)c5ccc(Cl)s5)OC4=O)cc3)n2)CC1 : 5.29
2. CC1CCN(Cc2cccn2-c2ccc(N3C[C@H](CNC(=O)c4ccc(Cl)s4)OC3=O)cc2)CC1 : 5.42
3. CN(C)Cc1cccn1-c1cc(F)c(N2C[C@H](CNC(=O)c3ccc(Cl)s3)OC2=O)c(F)c1 : 5.59
4. CN(C)Cc1csc(-c2ccc(N3C[C@H](CNC(=O)c4ccc(Cl)s4)OC3=O)cc2)n1 : 5.91
5. CCNCc1csc(-c2ccc(N3C[C@H](CNC(=O)c4ccc(Cl)s4)OC3=O)cc2)n1 : 5.94

I = CCN(CC)Cc1cc2ccccc2n1-c1ccc(N2C[C@H](CNC(=O)c3ccc(Cl)s3)OC2=O)cc1
II = O=C(NC[C@H]1CN(c2ccc(-n3cccc3CN3CCCC3)cc2)C(=O)O1)c1ccc(Cl)s1
III = O=C(NC[C@H]1CN(c2ccc(N3CCOCC3=O)cc2)C(=O)O1)c1ccc(Cl)s1 [RIVAROXABAN]
Task: Endpoint returns the given molecules ordered by ascending pIC50. Answer format: the labels, in the requested order.
Output: I, II, III
(I: 5.21, II: 5.70, III: 6.07)

====

Target: Coagulation factor X (Homo sapiens)
Assay: Inhibition of human F10a using S-2765 as substrate at 0.1 uM after 45 mins by spectra max analysis relative to control
Measured metric: inhibition (%)

1. O=C(NC[C@H]1CN(c2cc(F)c(-n3cccc3CN3CCCC3)c(F)c2)C(=O)O1)c1ccc(Cl)s1 : 73
2. CN(C)Cc1cc2ccccc2n1-c1ccc(N2C[C@H](CNC(=O)c3ccc(Cl)s3)OC2=O)cc1 : 69
3. CCNCc1csc(-c2ccc(N3C[C@H](CNC(=O)c4ccc(Cl)s4)OC3=O)cc2)n1 : 93
4. O=C(NC[C@H]1CN(c2ccc(-c3nc(CN4CCOCC4)cs3)cc2)C(=O)O1)c1ccc(Cl)s1 : 62

I = CC1CCN(Cc2csc(-c3ccc(N4C[C@H](CNC(=O)c5ccc(Cl)s5)OC4=O)cc3)n2)CC1
II = CN(C)Cc1cccn1-c1ccc(N2C[C@H](CNC(=O)c3ccc(Cl)s3)OC2=O)cc1
Task: Given I and given II , which shows the smaller recorded inhibition? // output: label of the selected item
Output: I
(I: 68%, II: 98%)

====

Assay: Solubility of the compound by Chinese pharmacopoeia 2010 edition of the second collection method
Format: physicochemical
Measured metric: solubility (µg/mL)

Solved entries:
1. O=C(NC[C@H]1CN(c2cc(F)c(-n3cccc3CN3CCCC3)c(F)c2)C(=O)O1)c1ccc(Cl)s1 : 20.4
2. CN1CCN(Cc2csc(-c3ccc(N4C[C@H](CNC(=O)c5ccc(Cl)s5)OC4=O)cc3)n2)CC1 : 33.2

I = O=C(NC[C@H]1CN(c2ccc(-n3c(CN4CCOCC4)cc4ccccc43)cc2)C(=O)O1)c1ccc(Cl)s1
II = CN(C)Cc1cccn1-c1ccc(N2C[C@H](CNC(=O)c3ccc(Cl)s3)OC2=O)cc1F
III = CCN(CC)Cc1cccn1-c1ccc(N2C[C@H](CNC(=O)c3ccc(Cl)s3)OC2=O)cc1
Task: Put the items in sequence by solubility, from largest down. Would you mind listing the labels in the order asked for?
Output: I, II, III

====

Molecular target: Coagulation factor X (Homo sapiens, UniProt P00742)
Sequence (P00742 41-179 limits assumed): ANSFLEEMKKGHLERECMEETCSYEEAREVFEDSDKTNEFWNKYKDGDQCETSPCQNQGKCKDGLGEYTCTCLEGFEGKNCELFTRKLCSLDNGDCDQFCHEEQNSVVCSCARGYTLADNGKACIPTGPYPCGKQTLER
Sequence (P00742 235-488 limits assumed): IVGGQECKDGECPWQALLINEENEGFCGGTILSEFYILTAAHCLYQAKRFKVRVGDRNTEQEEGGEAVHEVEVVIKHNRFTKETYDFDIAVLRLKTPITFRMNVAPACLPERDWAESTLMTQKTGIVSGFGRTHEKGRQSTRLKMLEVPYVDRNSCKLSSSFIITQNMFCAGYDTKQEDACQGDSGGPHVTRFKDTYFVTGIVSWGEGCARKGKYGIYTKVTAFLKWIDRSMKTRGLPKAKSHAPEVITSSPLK
Assay: Inhibition of human F10a using S-2765 as substrate at 0.1 uM after 45 mins by spectra max analysis relative to control
Measured metric: inhibition (%)

Consider the worked cases shown below.
1) CN(C)Cc1cccn1-c1ccc(N2C[C@H](CNC(=O)c3ccc(Cl)s3)OC2=O)cc1F : 90
2) CN(C)Cc1cccn1-c1cc(F)c(N2C[C@H](CNC(=O)c3ccc(Cl)s3)OC2=O)c(F)c1 : 88
3) CN(C)Cc1csc(-c2ccc(N3C[C@H](CNC(=O)c4ccc(Cl)s4)OC3=O)cc2)n1 : 91

P = O=C(NC[C@H]1CN(c2ccc(-n3c(CN4CCCCC4)cc4ccccc43)cc2)C(=O)O1)c1ccc(Cl)s1
Q = O=C(NC[C@H]1CN(c2ccc(-n3cccc3CN3CCC3)cc2)C(=O)O1)c1ccc(Cl)s1
Task: Returns: the label, P or Q , whose recorded inhibition is the lower number. Your answer should be the label attached to the chosen record.
Output: P
(P: 52%, Q: 92%)

P = CN1CCN(Cc2cccn2-c2ccc(N3C[C@H](CNC(=O)c4ccc(Cl)s4)OC3=O)cc2)CC1
Q = CN1CCN(Cc2cc3ccccc3n2-c2ccc(N3C[C@H](CNC(=O)c4ccc(Cl)s4)OC3=O)cc2)CC1
Task: Of P versus Q , which is the one with smaller reported inhibition? Kindly state the label of the option you pick.
Output: Q
(Q: 45%, P: 71%)

1 = CC1CCN(Cc2cccn2-c2ccc(N3C[C@H](CNC(=O)c4ccc(Cl)s4)OC3=O)cc2)CC1
2 = CCN(CC)Cc1csc(-c2ccc(N3C[C@H](CNC(=O)c4ccc(Cl)s4)OC3=O)cc2)n1
Task: Which entry shows the lesser value of inhibition here, 1 or 2 ? Your answer should be the label of the entry you select.
Output: 1
(1: 70%, 2: 100%)

A = CN1CCN(Cc2csc(-c3ccc(N4C[C@H](CNC(=O)c5ccc(Cl)s5)OC4=O)cc3)n2)CC1
B = O=C(NC[C@H]1CN(c2ccc(-n3cccc3CN3CCCCC3)cc2)C(=O)O1)c1ccc(Cl)s1
Task: Which of these two has the smaller recorded inhibition: A or B ? Bench note: the answer is the label of the chosen record.
Output: A
(A: 56%, B: 82%)

A = CC1CCN(Cc2cc3ccccc3n2-c2ccc(N3C[C@H](CNC(=O)c4ccc(Cl)s4)OC3=O)cc2)CC1
B = CNCc1csc(-c2ccc(N3C[C@H](CNC(=O)c4ccc(Cl)s4)OC3=O)cc2)n1
Task: Which of the two items, A and B , has the greater recorded inhibition? Return value: the label identifying the chosen record.
Output: B
(B: 89%, A: 56%)

====

Molecular target: Coagulation factor X (Homo sapiens, UniProt P00742)
Assay: Inhibition of F10a in human plasma assessed as doubling of prothombin time
pIC50: −log10 of the molar value.
Measured metric: pIC50

Solved cases (2 shown):
1. CN(C)Cc1csc(-c2ccc(N3C[C@H](CNC(=O)c4ccc(Cl)s4)OC3=O)cc2)n1 : 6.06
2. O=C(NC[C@H]1CN(c2ccc(-n3cccc3CN3CCC3)cc2)C(=O)O1)c1ccc(Cl)s1 : 6.15

a = O=C(NC[C@H]1CN(c2ccc(-n3c(CN4CCOCC4)cc4ccccc43)cc2)C(=O)O1)c1ccc(Cl)s1
b = CCN(CC)Cc1csc(-c2ccc(N3C[C@H](CNC(=O)c4ccc(Cl)s4)OC3=O)cc2)n1
Task: Kindly identify which of a and b has the larger recorded pIC50 value. Write the label of whichever entry you select.
Output: b
(b: 6.29, a: 4.99)

====

Target: Coagulation factor X (Oryctolagus cuniculus)
Sequence (O19045 whole entry): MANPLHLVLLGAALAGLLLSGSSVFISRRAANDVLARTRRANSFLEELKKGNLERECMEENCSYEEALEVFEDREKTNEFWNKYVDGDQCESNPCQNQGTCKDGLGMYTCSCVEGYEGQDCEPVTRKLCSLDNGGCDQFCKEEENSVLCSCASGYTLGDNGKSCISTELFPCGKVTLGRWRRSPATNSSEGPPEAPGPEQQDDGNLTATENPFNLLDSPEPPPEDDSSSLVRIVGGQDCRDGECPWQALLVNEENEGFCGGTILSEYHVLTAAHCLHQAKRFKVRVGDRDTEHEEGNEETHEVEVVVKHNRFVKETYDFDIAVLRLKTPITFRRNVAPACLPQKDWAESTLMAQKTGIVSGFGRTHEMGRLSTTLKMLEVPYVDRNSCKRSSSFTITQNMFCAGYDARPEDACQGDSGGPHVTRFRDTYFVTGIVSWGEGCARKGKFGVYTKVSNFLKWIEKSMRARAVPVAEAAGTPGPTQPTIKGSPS
Test: Inhibition of F10a in rabbit plasma assessed as doubling of activated partial thromboplastin time
Measured metric: IC50 (nM)

The following molecules have reported results that may help.
1) CN(C)Cc1cccn1-c1ccc(N2C[C@H](CNC(=O)c3ccc(Cl)s3)OC2=O)cc1F : 1580
2) CNCc1csc(-c2ccc(N3C[C@H](CNC(=O)c4ccc(Cl)s4)OC3=O)cc2)n1 : 1910
3) O=C(NC[C@H]1CN(c2ccc(-n3cccc3CN3CCCCC3)cc2)C(=O)O1)c1ccc(Cl)s1 : 3230

I = O=C(NC[C@H]1CN(c2ccc(-c3nc(CN4CCCC4)cs3)cc2)C(=O)O1)c1ccc(Cl)s1
II = CN(C)Cc1cccn1-c1ccc(N2C[C@H](CNC(=O)c3ccc(Cl)s3)OC2=O)cc1
Task: Between these two entries, I and II , state which has the higher IC50. Give the label under which the chosen entry appears.
Output: I
(I: 3040 nM, II: 1390 nM)
